IC100 by entry:
- Test system: Artemia
- testSummary: In vitro antiparasitic activity in brine shrimp assay
- Assay type: functional

compound: CCC(C)[C@H]1O[C@]2(C=C[C@@H]1C)C[C@@H]1C[C@@H](C/C=C(\C)[C@@H](O[C@H]3C[C@H](OC)[C@H](NC(C)=O)[C@H](C)O3)[C@@H](C)/C=C/C=C3\CO[C@@H]4[C@H](O)C(C)=C[C@@H](C(=O)O1)[C@]34O)O2 (some centres not stated)
targetDesc: Artemia
relation: =
IC100 / ng/mL: 1300

compound: CCC(C)[C@H]1O[C@]2(CC[C@@H]1C)C[C@@H]1C[C@@H](C/C=C(\C)[C@@H](O[C@H]3C[C@H](OC)[C@@H](O[C@H]4C[C@H](OC)[C@H](NC(=O)COC)[C@H](C)O4)[C@H](C)O3)[C@@H](C)/C=C/C=C3\CO[C@@H]4[C@H](O)C(C)=C[C@@H](C(=O)O1)[C@]34O)O2 (some centres not stated)
targetDesc: Artemia
relation: =
IC100 / ng/mL: 870

compound: CCCCCCCCN[C@@H]1[C@H](C)O[C@@H](O[C@H]2[C@H](C)O[C@@H](O[C@@H]3/C(C)=C/C[C@@H]4C[C@@H](C[C@]5(C=C[C@H](C)[C@@H](C(C)CC)O5)O4)OC(=O)[C@@H]4C=C(C)[C@@H](O)[C@H]5OC/C(=C\C=C\[C@@H]3C)[C@]54O)C[C@@H]2OC)C[C@@H]1OC (some centres not stated)
targetDesc: Artemia
relation: >
IC100 / ng/mL: 55500

compound: CCC(C)[C@H]1O[C@]2(C=C[C@@H]1C)C[C@@H]1C[C@@H](C/C=C(\C)[C@@H](O[C@H]3C[C@H](OC)[C@@H](O[C@H]4C[C@H](OC)[C@H](NS(C)(=O)=O)[C@H](C)O4)[C@H](C)O3)[C@@H](C)/C=C/C=C3\CO[C@@H]4[C@H](O)C(C)=C[C@@H](C(=O)O1)[C@]34O)O2 (some centres not stated)
targetDesc: Artemia
relation: =
IC100 / ng/mL: 430

compound: CCC(C)[C@H]1O[C@]2(C=C[C@@H]1C)C[C@@H]1C[C@@H](C/C=C(\C)[C@@H](O[C@H]3C[C@H](OC)[C@@H](O[C@H]4C[C@H](OC)[C@H](N(C)C(C)=O)[C@H](C)O4)[C@H](C)O3)[C@@H](C)/C=C/C=C3\CO[C@@H]4[C@H](O)C(C)=C[C@@H](C(=O)O1)[C@]34O)O2 (some centres not stated)
targetDesc: Artemia
relation: =
IC100 / ng/mL: 650

compound: CCC(C)[C@H]1O[C@]2(C=C[C@@H]1C)C[C@@H]1C[C@@H](C/C=C(\C)[C@@H](O[C@H]3C[C@H](OC)[C@@H](O[C@H]4C[C@H](OC)[C@H](NCc5ccccc5)[C@H](C)O4)[C@H](C)O3)[C@@H](C)/C=C/C=C3\CO[C@@H]4[C@H](O)C(C)=C[C@@H](C(=O)O1)[C@]34O)O2 (some centres not stated)
targetDesc: Artemia
relation: >
IC100 / ng/mL: 55500

compound: CCC(C)[C@H]1O[C@]2(C=C[C@@H]1C)C[C@@H]1C[C@@H](C/C=C(\C)[C@@H](O[C@H]3C[C@H](OC)[C@@H](O[C@H]4C[C@H](OC)[C@H](NC(=O)NC)[C@H](C)O4)[C@H](C)O3)[C@@H](C)/C=C/C=C3\CO[C@@H]4[C@H](O)C(C)=C[C@@H](C(=O)O1)[C@]34O)O2 (some centres not stated)
targetDesc: Artemia
relation: =
IC100 / ng/mL: 430

These measurements were taken from ChEMBL document CHEMBL1128617.
